# Target system: Protein cereblon/Protein deacetylase HDAC6 (Homo sapiens, UniProt Q9UBN7+Q96SW2)
# Protocol summary: Protac activity at CRBN/HDAC6 in human MM1S cells assessed as HDAC6 degradation at 10 to 100 nM measured after 6 hrs by Western blot analysis
# Assay type: cell-based
# Sequence (Q96SW2 whole entry, looked up): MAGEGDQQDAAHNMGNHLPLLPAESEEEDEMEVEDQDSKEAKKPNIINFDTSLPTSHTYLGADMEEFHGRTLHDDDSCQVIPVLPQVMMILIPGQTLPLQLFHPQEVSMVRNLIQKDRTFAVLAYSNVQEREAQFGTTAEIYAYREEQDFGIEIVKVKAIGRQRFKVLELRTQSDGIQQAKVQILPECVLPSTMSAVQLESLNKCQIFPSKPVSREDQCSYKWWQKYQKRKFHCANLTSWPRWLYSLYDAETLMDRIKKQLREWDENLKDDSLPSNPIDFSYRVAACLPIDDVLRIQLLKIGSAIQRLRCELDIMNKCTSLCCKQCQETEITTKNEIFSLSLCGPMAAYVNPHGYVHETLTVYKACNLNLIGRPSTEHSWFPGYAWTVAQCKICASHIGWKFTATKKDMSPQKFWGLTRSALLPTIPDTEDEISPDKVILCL
# Sequence (Q9UBN7 whole entry, looked up): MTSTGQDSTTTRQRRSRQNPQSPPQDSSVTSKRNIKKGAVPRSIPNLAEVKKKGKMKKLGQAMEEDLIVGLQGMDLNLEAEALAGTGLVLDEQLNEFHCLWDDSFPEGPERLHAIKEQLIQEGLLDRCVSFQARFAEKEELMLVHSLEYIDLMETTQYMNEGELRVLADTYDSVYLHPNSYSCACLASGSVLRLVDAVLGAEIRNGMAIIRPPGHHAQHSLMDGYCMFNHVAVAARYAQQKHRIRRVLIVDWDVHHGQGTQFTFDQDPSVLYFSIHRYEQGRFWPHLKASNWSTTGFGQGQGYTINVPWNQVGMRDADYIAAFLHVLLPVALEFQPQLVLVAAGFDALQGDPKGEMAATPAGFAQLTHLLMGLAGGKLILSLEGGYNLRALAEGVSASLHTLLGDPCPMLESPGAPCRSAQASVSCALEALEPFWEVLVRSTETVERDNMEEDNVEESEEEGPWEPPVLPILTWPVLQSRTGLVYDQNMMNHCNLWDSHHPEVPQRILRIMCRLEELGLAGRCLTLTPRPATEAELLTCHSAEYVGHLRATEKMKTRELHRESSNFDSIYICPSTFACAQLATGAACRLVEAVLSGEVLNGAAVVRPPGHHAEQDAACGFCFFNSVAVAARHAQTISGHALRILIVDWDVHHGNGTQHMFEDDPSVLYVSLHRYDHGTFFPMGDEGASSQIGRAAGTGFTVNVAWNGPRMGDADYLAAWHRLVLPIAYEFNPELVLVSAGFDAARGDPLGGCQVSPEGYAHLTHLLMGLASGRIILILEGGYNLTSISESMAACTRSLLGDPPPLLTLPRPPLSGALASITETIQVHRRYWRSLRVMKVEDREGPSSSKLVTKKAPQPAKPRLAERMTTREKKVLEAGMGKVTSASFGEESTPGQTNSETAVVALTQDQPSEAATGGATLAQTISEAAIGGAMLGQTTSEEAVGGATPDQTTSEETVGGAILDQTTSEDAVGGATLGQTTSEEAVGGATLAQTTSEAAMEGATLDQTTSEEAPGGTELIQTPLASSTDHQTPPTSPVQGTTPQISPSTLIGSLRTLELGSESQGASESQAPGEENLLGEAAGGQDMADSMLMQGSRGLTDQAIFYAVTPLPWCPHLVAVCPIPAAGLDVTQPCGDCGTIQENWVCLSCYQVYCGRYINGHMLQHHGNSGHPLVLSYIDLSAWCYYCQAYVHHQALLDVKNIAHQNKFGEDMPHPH
Activity calls are given as the source filed them. No cut-off for these calls is given here.
Observed property: Activity

CCCCN(Cc1ccc(C(=O)NO)cc1)C(=O)Nc1ccc(OCCCCn2cc(CNc3ccc4c(c3)C(=O)N(C3CCC(=O)NC3=O)C4=O)nn2)cc1 (configuration not stated)    Active
CCCCN(Cc1ccc(C(=O)NO)cc1)C(=O)Nc1ccc(OCCCn2cc(CCCNc3ccc4c(c3)C(=O)N(C3CCC(=O)NC3=O)C4=O)nn2)cc1 (configuration not stated)    Active
CCCCN(Cc1ccc(C(=O)NO)cc1)C(=O)Nc1ccc(OCCCCCn2cc(CNc3ccc4c(c3)C(=O)N(C3CCC(=O)NC3=O)C4=O)nn2)cc1 (configuration not stated)    Active
CCCCN(Cc1ccc(C(=O)NO)cc1)C(=O)Nc1ccc(OCCCCCn2cc(CNc3cccc4c3C(=O)N(C3CCC(=O)NC3=O)C4=O)nn2)cc1 (configuration not stated)    Active
O=C(CCCCCCC(=O)N/N=C/c1ccc(OCCOCCOCCn2cc(CNc3cccc4c3C(=O)N(C3CCC(=O)NC3=O)C4=O)nn2)cc1)NO (configuration not stated)    Active

Documented Activity of CCCCN(Cc1ccc(C(=O)NO)cc1)C(=O)Nc1ccc(OCCn2cc(CCCNc3cccc4c3C(=O)N(C3CCC(=O)NC3=O)C4=O)nn2)cc1 (configuration not stated) : Active

Documented Activity of CCCCN(Cc1ccc(C(=O)NO)cc1)C(=O)Nc1ccc(OCCCCn2cc(CCNc3cccc4c3C(=O)N(C3CCC(=O)NC3=O)C4=O)nn2)cc1 (configuration not stated) : Active

* * *

Each entry below carries its reported %max.
# Target system: Protein cereblon/Protein deacetylase HDAC6 (Homo sapiens, UniProt Q9UBN7+Q96SW2)
# Protocol summary: Protac activity at CRBN/HDAC6 in human MM1S cells assessed as HDAC6 degradation measured after 6 hrs by ELISA relative to control
# Assay type: cell-based
Kindly answer with a numeric value in %, unit omitted.

Illustrative cases are given below, each with its answer.
CCCCN(Cc1ccc(C(=O)NO)cc1)C(=O)Nc1ccc(OCCCCCn2cc(CNc3cccc4c3C(=O)N(C3CCC(=O)NC3=O)C4=O)nn2)cc1 (centres undefined)    86.3
CCCCN(Cc1ccc(C(=O)NO)cc1)C(=O)Nc1ccc(OCCn2cc(CNc3cccc4c3C(=O)N(C3CCC(=O)NC3=O)C4=O)nn2)cc1 (centres undefined)    88
O=C(CCCCCCC(=O)N/N=C/c1ccc(OCCOCCOCCn2cc(CNc3cccc4c3C(=O)N(C3CCC(=O)NC3=O)C4=O)nn2)cc1)NO (centres undefined)    84.1

Next item in the queue.
Documented %max of CCCCN(Cc1ccc(C(=O)NO)cc1)C(=O)Nc1ccc(OCCn2cc(CCCNc3cccc4c3C(=O)N(C3CCC(=O)NC3=O)C4=O)nn2)cc1 (centres undefined) : 86.3

* * *

Each entry below carries its reported DC50.
# Target system: Protein cereblon/Protein deacetylase HDAC6 (Homo sapiens, UniProt Q9UBN7+Q96SW2)
# Protocol summary: Protac activity at CRBN/HDAC6 in human MM1S cells assessed as HDAC6 degradation measured after 6 hrs by ELISA
# Format: cell-based
# Sequence (Q9UBN7 whole entry): as the sequence (Q9UBN7 whole entry, looked up) above
# Sequence (Q96SW2 whole entry): as the sequence (Q96SW2 whole entry, looked up) above
Report field: quantity (unit follows the number).

Illustrative cases are given below, each with its answer.
CCCCN(Cc1ccc(C(=O)NO)cc1)C(=O)Nc1ccc(OCCn2cc(CNc3cccc4c3C(=O)N(C3CCC(=O)NC3=O)C4=O)nn2)cc1 (centres undefined)    3.41 nM
O=C(CCCCCCC(=O)N/N=C/c1ccc(OCCOCCOCCn2cc(CNc3cccc4c3C(=O)N(C3CCC(=O)NC3=O)C4=O)nn2)cc1)NO (centres undefined)    9.12 nM
CCCCN(Cc1ccc(C(=O)NO)cc1)C(=O)Nc1ccc(OCCCCCn2cc(CNc3cccc4c3C(=O)N(C3CCC(=O)NC3=O)C4=O)nn2)cc1 (centres undefined)    1.64 nM

Next item in the queue.
Protein cereblon/Protein deacetylase HDAC6 (Homo sapiens, UniProt Q9UBN7+Q96SW2) data for CCCCN(Cc1ccc(C(=O)NO)cc1)C(=O)Nc1ccc(OCCn2cc(CCCNc3cccc4c3C(=O)N(C3CCC(=O)NC3=O)C4=O)nn2)cc1 (centres undefined) ; its DC50: 2.54 nM

* * *

# Target system: Histone deacetylase 4 (Homo sapiens)
# Sequence (P56524 whole entry): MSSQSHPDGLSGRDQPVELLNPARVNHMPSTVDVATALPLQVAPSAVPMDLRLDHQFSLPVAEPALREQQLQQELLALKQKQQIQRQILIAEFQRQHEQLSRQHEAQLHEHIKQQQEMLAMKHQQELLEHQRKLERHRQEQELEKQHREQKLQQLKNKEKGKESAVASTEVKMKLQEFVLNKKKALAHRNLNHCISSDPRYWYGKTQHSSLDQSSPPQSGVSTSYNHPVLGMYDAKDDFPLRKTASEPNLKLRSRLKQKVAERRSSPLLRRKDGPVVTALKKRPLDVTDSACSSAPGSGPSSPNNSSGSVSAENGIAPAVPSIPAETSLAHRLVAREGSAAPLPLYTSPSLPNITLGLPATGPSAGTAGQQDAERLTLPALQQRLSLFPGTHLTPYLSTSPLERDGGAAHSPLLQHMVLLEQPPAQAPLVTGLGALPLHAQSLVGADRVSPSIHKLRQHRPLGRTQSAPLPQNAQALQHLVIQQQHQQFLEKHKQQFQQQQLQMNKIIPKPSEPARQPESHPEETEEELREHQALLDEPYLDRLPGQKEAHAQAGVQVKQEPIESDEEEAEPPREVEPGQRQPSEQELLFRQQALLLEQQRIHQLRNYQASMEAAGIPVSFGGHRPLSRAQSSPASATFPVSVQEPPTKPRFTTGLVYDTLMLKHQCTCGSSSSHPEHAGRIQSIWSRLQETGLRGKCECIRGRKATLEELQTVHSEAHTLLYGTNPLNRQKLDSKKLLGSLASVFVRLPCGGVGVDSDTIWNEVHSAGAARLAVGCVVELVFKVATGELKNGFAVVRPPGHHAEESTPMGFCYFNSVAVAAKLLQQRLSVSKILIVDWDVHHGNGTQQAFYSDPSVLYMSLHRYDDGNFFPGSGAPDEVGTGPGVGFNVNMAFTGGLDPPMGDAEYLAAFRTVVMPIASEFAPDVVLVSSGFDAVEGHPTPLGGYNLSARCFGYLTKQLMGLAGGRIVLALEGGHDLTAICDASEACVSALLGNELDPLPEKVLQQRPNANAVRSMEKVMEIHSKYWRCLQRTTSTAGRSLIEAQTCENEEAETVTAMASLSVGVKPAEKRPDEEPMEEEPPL
Observed property: IC50

Histone deacetylase 4 (Homo sapiens) data for CCCCN(Cc1ccc(C(=O)NO)cc1)C(=O)Nc1ccc(OCCCCCn2cc(CNc3cccc4c3C(=O)N(C3CCC(=O)NC3=O)C4=O)nn2)cc1 (stereo unspecified) ; its IC50: 0.3 to 30 µM

These entries and their values trace back to ChEMBL document CHEMBL4311941.
